- Test system: KM20L2 colon
- PROTOCOL: NCI tumour cell line growth inhibition, 48 h
PROPERTY NAME: TGI

Examples from the recorded data:
CCOP(=O)(OCC)C1CC(C)OC1=O (stereo not drawn) | > 100 µM
O=C1C=CC=C[C@@H]2C(C3OCCO3)CC[C@H]12.[C-]#[O+].[C-]#[O+].[C-]#[O+].[Fe] (stereo partly drawn) | > 100 µM
CC1(C(=O)Nc2ccc3cc4ccccc4cc3c2)CC2(C)CC(C)(C1)C(O)NC2=O (stereo not drawn) | > 100 µM
NC1CCCCC1N.O=C([O-])c1cc(S(=O)(=O)Nc2cc(S(=O)(=O)[O-])cc3cc(S(=O)(=O)[O-])cc(O)c23)ccc1[O-].[Pt+4] | > 100 µM
Cc1cc(C)nc(NS(=O)(=O)c2ccc(NC(=O)c3cccc4c(Nc5ccc(S(=O)(=O)Nc6nc(C)cc(C)n6)cc5)c5ccc(Cl)cc5nc34)cc2)n1 | > 100 µM

Give KM20L2 colon TGI for `O=C(Cc1nc(-c2ccccc2)cc(=O)n1-c1ccccc1Cl)c1ccncc1` > 100 µM

Give KM20L2 colon TGI for `CCOC(=O)Cn1c(=O)[nH]c(=O)c2c1ncn2Cc1ccccc1` > 100 µM

Give KM20L2 colon TGI for `O=C(/C=C/c1ccc(Cl)cc1)c1ccc(Cl)c(Cl)c1` > 100 µM
